- target.under.test: PDE1A (Homo sapiens (Human), UniProt P54750)
- Sequence (P54750 whole entry): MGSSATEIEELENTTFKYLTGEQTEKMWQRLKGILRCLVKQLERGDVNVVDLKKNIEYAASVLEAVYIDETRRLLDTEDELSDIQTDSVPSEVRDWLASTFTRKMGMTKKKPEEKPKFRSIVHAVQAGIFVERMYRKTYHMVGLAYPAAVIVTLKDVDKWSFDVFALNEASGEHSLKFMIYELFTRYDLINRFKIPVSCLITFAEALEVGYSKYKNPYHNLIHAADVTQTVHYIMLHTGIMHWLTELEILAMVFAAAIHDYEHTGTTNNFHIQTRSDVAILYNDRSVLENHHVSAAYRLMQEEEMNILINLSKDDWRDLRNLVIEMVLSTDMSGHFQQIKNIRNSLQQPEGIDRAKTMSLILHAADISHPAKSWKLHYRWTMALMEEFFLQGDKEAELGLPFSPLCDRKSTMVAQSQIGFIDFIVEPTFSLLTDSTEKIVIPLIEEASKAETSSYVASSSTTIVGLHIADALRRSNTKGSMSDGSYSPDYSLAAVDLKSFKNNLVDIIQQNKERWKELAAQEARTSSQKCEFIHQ
- protocol.details: PDE1 inhibition assay, PDE1A
- Assay type: biochemical
- condition.set: @ 1 μM compound
parameter: inhibition at 1 µM

May I ask what inhibition at 1 µM has been recorded for CCOc1ncccc1-c1cc(NC2CCOC2)c2c(cnn2C2COC2)n1 (racemic) ? 47%

Name the reported inhibition at 1 µM value associated with the molecule CCOc1ncccc1-c1cc(N2CC[C@@H](OC)C2)c2c(cnn2C)n1 23%

Item CCOc1ncccc1-c1cc(N2CCCC2)c2c(n1)c(C)nn2C has what recorded inhibition at 1 µM? 70%

====

Field: IC50. Provide a value for each of the compounds that follow.
- target.under.test: PDE1B (Homo sapiens (Human), UniProt Q01064)
- Sequence (Q01064 whole entry): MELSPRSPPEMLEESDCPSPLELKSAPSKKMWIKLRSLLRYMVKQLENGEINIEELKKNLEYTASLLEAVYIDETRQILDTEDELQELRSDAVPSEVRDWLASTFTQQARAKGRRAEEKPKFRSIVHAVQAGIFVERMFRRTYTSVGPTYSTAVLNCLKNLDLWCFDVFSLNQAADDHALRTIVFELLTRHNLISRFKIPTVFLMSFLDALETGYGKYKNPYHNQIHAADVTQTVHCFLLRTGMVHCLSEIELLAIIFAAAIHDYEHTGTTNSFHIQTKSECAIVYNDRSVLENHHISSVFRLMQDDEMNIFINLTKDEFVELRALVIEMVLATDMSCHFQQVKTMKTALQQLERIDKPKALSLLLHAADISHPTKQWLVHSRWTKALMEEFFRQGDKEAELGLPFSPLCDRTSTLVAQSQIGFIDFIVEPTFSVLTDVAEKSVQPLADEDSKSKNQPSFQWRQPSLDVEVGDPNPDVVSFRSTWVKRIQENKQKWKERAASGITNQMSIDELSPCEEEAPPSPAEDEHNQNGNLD
Write the answer as a number in nM, unit excluded.

Hi! What's the reported IC50 for COc1ncccc1-c1nc2c(C)nn(C(C)C)c2cc1C on PDE1B (Homo sapiens (Human), UniProt Q01064)? 84

Form entry - test system: PDE1B (Homo sapiens (Human), UniProt Q01064); read-out: IC50; compound: CC(C)n1ncc2nc(-c3cccc4c3OCCO4)cc(N[C@@H]3CCOC3)c21 546

Lab request: please report IC50 under test system PDE1B (Homo sapiens (Human), UniProt Q01064) for CCOc1ncccc1-c1cc(NC2CCOCC2)c2c(cnn2C(C)C)n1 126

What is its IC50 for PDE1B (Homo sapiens (Human), UniProt Q01064)? Entry: CCOc1ncccc1-c1nc2c(C)nn(CC)c2cc1C 156

Can you look up IC50 on PDE1B (Homo sapiens (Human), UniProt Q01064) for CCOc1ncccc1-c1cc(NC2CCC(OC)C2)c2c(cnn2C)n1 (stereo not drawn) ? 311

Please state recorded IC50 (tested on PDE1B (Homo sapiens (Human), UniProt Q01064)) of CC(C)n1ncc2nc(Cc3ccc(F)cc3)cc(N[C@@H]3CCOC3)c21 1220

Notebook: pull reported IC50 for PDE1B (Homo sapiens (Human), UniProt Q01064), entry COc1cccc(Cc2cc(N[C@@H]3CCOC3)c3c(cnn3C(C)C)n2)c1 1340

Please state recorded IC50 (tested on PDE1B (Homo sapiens (Human), UniProt Q01064)) of COc1ccncc1-c1cc(N[C@@H]2CCOC2)c2c(cnn2C(C)C)n1 1230

Could you share what IC50 was measured for Cc1cc2c(nc1-c1ccccc1)c(C)nn2C(C)C , tested on PDE1B (Homo sapiens (Human), UniProt Q01064)? 122
